target: PDE4D (Homo sapiens, UniProt Q08499); construct: PDE4D: The catalytic domain of human PDE4B from S3 16-V692; His6 (N); thrombin cleavage site (N); made in house; host or cells: E. coli; assay: PDE4 IC50 determination by Scintillation Proximity Assay, PDE4D; assay type: biochemical; settings: Table 1B, Formula I compounds; read-out: IC50 PDE4D
Sequence (Q08499 380-756): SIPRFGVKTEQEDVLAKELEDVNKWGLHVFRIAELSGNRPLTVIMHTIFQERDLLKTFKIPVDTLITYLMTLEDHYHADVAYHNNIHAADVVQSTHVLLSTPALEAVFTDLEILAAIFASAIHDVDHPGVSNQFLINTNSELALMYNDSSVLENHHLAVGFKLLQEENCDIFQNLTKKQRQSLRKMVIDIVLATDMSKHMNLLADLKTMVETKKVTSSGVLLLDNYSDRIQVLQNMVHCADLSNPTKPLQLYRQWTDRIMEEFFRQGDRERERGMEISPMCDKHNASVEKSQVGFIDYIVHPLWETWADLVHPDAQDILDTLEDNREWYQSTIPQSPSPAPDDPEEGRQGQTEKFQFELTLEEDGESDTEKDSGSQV
reported metric: IC50

Example cases with answers are listed next.
molecule	IC50
COC(=O)c1ccccc1Nc1sc(C(=O)c2ccc(-c3ccccn3)s2)c(N)c1C#N	< 10 µM
COC(=O)C(CC(C)C)Nc1sc(C(=O)c2cnn(-c3ccccc3)c2C)c(N)c1C#N (centres unmarked)	> 10 µM
COc1ccc(Nc2sc(C(=O)c3coc4ccccc34)c(N)c2C#N)cc1	< 10 µM

Problem: Could you share which IC50 value was measured for N#Cc1c(Nc2ccccc2)sc(C(=O)c2cc(-c3ccccc3)no2)c1N ?
Solution: < 10 µM

Problem: I have this molecule here, N#Cc1c(Nc2ccc(Oc3ccccc3)cc2)sc(C(=O)c2cc(-c3ccccc3)no2)c1N , and I need its recorded IC50.
Solution: > 10 µM

Problem: I would be grateful if you could share the reported IC50 for Cc1ccc(C(=O)c2sc(NC3CCOC3=O)c(C#N)c2N)c(C)c1 (centres unmarked) .
Solution: > 10 µM

Problem: Given the molecule COC(=O)C(CC(C)C)Nc1sc(C(=O)c2ccc(-c3ccccn3)s2)c(N)c1C#N (centres unmarked) , what is its reported IC50?
Solution: < 10 µM

Problem: Value lookup for IC50; key = CCOC(=O)c1c(Nc2ccccc2OC)sc(C(=O)c2ccc(Br)cc2)c1N
Solution: < 10 µM

Problem: Please report the recorded IC50 for COC(=O)C(CC(C)C)Nc1sc(C(=O)c2csc3ccccc23)c(N)c1C#N (centres unmarked) .
Solution: < 10 µM

Problem: Reported IC50, molecule N#Cc1c(Nc2ccc3c(c2)CCC3)sc(C(=O)c2ccccn2)c1N : ____
Solution: < 10 µM

Problem: I have this molecule here, Cc1onc(-c2ccccc2)c1C(=O)c1sc(NCCN2CCCCC2)c(C#N)c1N , and I need its recorded IC50.
Solution: > 10 µM

Problem: Returns the measured IC50 for the input molecule. Input: N#Cc1c(NC2CCCC2)sc(C(=O)c2ccc(-c3ccccn3)s2)c1N
Solution: < 10 µM

Problem: I have this molecule here, N#Cc1c(Nc2ccccc2)sc(C(=O)c2ccc(Cl)cc2)c1N , and I need its recorded IC50.
Solution: < 10 µM
